// values below are reported koff
# assay_system: T1, huNectin4-His (human, UniProt Q96NY8 32-349)
# T1 construct: Immobilized on the SPR chip; also called humanNectin4; human Nectin4; not shown: His tag
# T1 sequence (looked up): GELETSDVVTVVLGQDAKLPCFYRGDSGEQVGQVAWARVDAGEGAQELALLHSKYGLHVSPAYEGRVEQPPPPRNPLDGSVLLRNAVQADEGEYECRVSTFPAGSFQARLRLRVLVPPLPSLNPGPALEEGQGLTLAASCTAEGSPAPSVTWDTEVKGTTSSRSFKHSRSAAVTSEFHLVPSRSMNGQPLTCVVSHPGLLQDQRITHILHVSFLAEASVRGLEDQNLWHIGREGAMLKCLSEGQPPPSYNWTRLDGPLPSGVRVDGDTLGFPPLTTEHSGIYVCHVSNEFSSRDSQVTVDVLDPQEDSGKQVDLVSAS
# run_description: SPR, huNectin4-His immobilized, pH 7.4
Return type: number; implicit unit s⁻¹.

Past entries and their recorded results:
[[record]]
binder = "BAP-143-00-03 (antibody, V domains shown, Used as a conjugate with a linker payload (CAB ADC)) VH: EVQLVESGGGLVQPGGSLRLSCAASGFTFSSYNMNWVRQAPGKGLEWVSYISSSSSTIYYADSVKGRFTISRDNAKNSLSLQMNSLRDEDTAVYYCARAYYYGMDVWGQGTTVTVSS VL: DIQMTQSPSSVSASVGDRVTITCRASQGISGWLAWYQQKPGKAPKFLIYAASTLQSGVPSRFSGSGSGTDFTLTISSLQPEDFATYYCQQANSFPDTFGGGTKVEIK"
experimental_endpoint = "koff"
measurement_unit = "s⁻¹"
number = 0.0032

[[record]]
binder = "BAP-143-00-06 (antibody, V domains shown, Used as a conjugate with a linker payload (CAB ADC)) VH: EVQLVESGGGLVQPGGSLRLSCAASGFTFSSYNMNWVRQAPGKGLEWVSYISSSSSTIYYADSVKGRFTISRDNAKNSLSLQMNSLRDEDTAVYYCARAYYYGDDVWGQGTTVTVSS VL: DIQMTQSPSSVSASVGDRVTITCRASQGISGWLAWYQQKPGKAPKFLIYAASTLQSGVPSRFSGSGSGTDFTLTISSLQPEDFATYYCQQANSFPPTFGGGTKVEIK"
experimental_endpoint = "koff"
measurement_unit = "s⁻¹"
number = 0.00143


q: Please look up its koff: BAP-143-00-01 (antibody, V domains shown, Used as a conjugate with a linker payload (CAB ADC)) VH: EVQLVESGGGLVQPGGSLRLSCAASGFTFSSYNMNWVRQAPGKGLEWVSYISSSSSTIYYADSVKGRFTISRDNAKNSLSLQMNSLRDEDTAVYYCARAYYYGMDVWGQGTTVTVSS VL: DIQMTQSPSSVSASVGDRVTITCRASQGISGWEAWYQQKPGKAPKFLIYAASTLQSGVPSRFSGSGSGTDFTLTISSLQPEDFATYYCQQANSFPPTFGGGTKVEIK
a: 0.00267

Ref: patent US20230235054A1
